Molecular target: T1, Human VSIG4-S-His (human, UniProt Q9Y279 20-283)
T1 construct: short isoform ECD with His tag; also called hVSIG4-S; VISG4-S-His
T1 sequence: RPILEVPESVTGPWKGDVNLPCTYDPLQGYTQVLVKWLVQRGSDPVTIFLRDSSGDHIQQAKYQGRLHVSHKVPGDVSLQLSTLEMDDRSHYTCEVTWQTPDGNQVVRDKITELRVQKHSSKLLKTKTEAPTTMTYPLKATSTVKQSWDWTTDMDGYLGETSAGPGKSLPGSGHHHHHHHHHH
Test: BLI (Octet), mouse IgG on AMC sensor, antigen 100 nM;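 note: octet Red384 biolayer interferometry with immobilized mouse hybridoma antibodies, 300 s association then 300 s dissociation at 30 °C, isotype-control reference subtraction, 1:1 global fit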
pKd: −log10 of the molar value.
outcome.measure: pKd

binder | outcome.measure | value.observed
16F6.E1 murine hybridoma antibody (antibody, V domains shown, murine IgG purified from hybridoma supernatant; also called 16F6.H6) VH: QVQLQQPGAEMVRPGASLKLSCKASGYTFTSYWMHWVKQRPGQGLEWIGKIDPSKNTTHYNQNFRDKATLTVDRSSSTAYMQLNSLTSEDSAVYFCVTWDGDFTYWGQGTLVTISA VL: NIVLTQSPPSLAVSLGQRATISCRASESVDSYGNSFMHWYQQKPGQPPKLLIYLASNLESGVPARFSGSGSRTDFTLTIDPVEADDAATYFCHQNNEDPWTFGGGTKLEIK | pKd | 8.54
1H7.C7 murine hybridoma antibody (antibody, V domains shown, murine IgG purified from hybridoma supernatant) VH: EVQLVESGGGLVMPGGSRRLSCAASGFTFSDSGMYWVRQAPEKGLEWIAYISSGSDTLYYAATVKGRFTISRDNAKNTLFLQMTSLRSEDTAIYYCAKRNFYGYDVMDYWGQGTSVTVSS VL: DIVMTQSHKFMSTSVGDRVSITCKASQDVSNVVAWYQQKPGQSPKLLIYSASYRYTGVPDRFAGSGSGTDFTFTISSVQAEDLAVYYCQQHYSTPWTFGGGTKLEIK | pKd | 7.67
